# System: GP2d
# TEST: 3D cell proliferation inhibition assay (CellTiter-Glo 3D)
# Format: cell-based
# CONDITION LABEL: GP2d cells, KRAS G12D, 3D culture, 5 days with compound
ENDPOINT: pIC50
In textbook form, pIC50 equals minus log to base ten of the concentration in mol/L.

Exam item: What value of pIC50 has been reported for the following molecule? N#Cc1c(N)sc2c(F)ccc(-c3c4c(c5c(N6C7CCC6CNC7)nc(OCC6(CN7CCC(=CF)CC7)CC6)nc5c3F)COC4)c12 (single isomer, unassigned) [Example 9A]
Marked response: 9.80

Exam item: Given the molecule N#Cc1c(N)sc2c(F)ccc(-c3c4c(c5c(N6C7CCC6CNC7)nc(OCC6(CN7CCC(=CF)CC7)CC6)nc5c3F)COC4)c12 (single isomer, unassigned) [Example 9B] , what is its reported pIC50?
Marked response: 8.59

====

# TEST: in vivo
# CONDITION LABEL: rat, in vivo, po, 20 mg/kg
ENDPOINT: half-life (h)
Report only the number, with the unit h understood.

Exam item: Name the recorded half-life for N#Cc1c(N)sc2c(F)ccc(-c3c4c(c5cnc(OC[C@@]67CCCN6C[C@H](F)C7)nc5c3Cl)COC4)c12 (single isomer, unassigned) [60A (reference), reference compound] .
Marked response: 3.53

====

# TEST: Pharmacokinetic evaluation, mouse experiment (oral gavage, plasma LC-MS/MS)
# Type: in vivo
# CONDITION LABEL: balb/c nude mice, female, oral gavage (i.g.), 20.0 mg/kg, read-out: Plasma concentration Cmax
ENDPOINT: Cmax (ng/mL)
Answer in ng/mL, number only, no unit symbol.

Exam item: I'd like to know its Cmax. The molecule in question is C[C@@H](O)CN1CC2CCC(C1)N2c1nc(OCC2(CN3CCC(=C(F)F)CC3)CC2)nc2c(F)c(-c3ncc(F)c4sc(N)c(C#N)c34)c3c(c12)COC3 [Example 2]
Marked response: 1060

====

# TEST: in vivo
# CONDITION LABEL: rat, in vivo, po, 20 mg/kg
ENDPOINT: AUC(0-t) (ng·h/mL)
Note: unit ng·h/mL is implicit; provide only the numeric part.

Exam item: Given the entry N#Cc1c(N)sc2c(F)ccc(-c3c4c(c5cnc(OC[C@@]67CCCN6C[C@H](F)C7)nc5c3Cl)COC4)c12 (single isomer, unassigned) [60A (reference), reference compound] , report its measured AUC(0-t).
Marked response: 1820

====

# TEST: in vivo
# CONDITION LABEL: both, SD, rat, plasma, po, 40 mg/kg
ENDPOINT: Vd/F (L/kg)
Please state the figure in L/kg; there is no need to write the unit.

Exam item: Could you tell me which Vd/F is on file for C[C@@H](O)CN1CC2CCC(C1)N2c1nc(OCC2(CN3CCC(=C(F)F)CC3)CC2)nc2c(F)c(-c3ncc(F)c4sc(N)c(C#N)c34)c3c(c12)COC3 ?
Marked response: 19.6

====

# Test system: MKN1
# TEST: 3D cell proliferation inhibition assay (CellTiter-Glo 3D)
# Assay type: cell-based
# CONDITION LABEL: Homo sapiens, MKN-1, 120 h; MKN1 cells, KRAS Amp, 3D culture, 5 days with compound
Answer each item with its documented pIC50.
As a rule, pIC50 stands for the negative log10 of the concentration, concentration in M.

Exam item: State its pIC50 on MKN1: C=C1CN2CC(=C)CC2(COc2ncc3c4c(c(-c5ccc(F)c6sc(N)c(C#N)c56)c(F)c3n2)COC4)C1 [Example 26]
Marked response: 7.88

Exam item: Lab note: need pIC50 for N#Cc1c(N)sc2c(F)ccc(-c3c4c(c5cnc(OCC67CCCN6CC(=C(F)F)C7)nc5c3F)COC4)c12 (single isomer, unassigned) [Example 44A] on MKN1, anyone have it?
Marked response: 8.89

Exam item: For the record N#Cc1c(N)sc2c(F)ccc(-c3c4c(c5cnc(OCC67CCCN6CC(=C(F)F)C7)nc5c3F)COC4)c12 (stereo not shown) [Example 27] , what value of pIC50 is listed for MKN1?
Marked response: 8.09

Exam item: Hello, I am looking for reported pIC50 with MKN1 for N#Cc1c(N)sc2ccc(F)c(-c3c4c(c5cnc(OCC6(CN7CCC(=CF)CC7)CC6)nc5c3F)COC4)c12 [Example 40] . Could you help?
Marked response: 7.96

Exam item: Look up pIC50 with MKN1 for this compound: N#Cc1c(N)sc2c(F)ccc(-c3c4c(c5cnc(OCC6(CN7CCC(=CF)CC7)CC6)nc5c3F)COC4)c12 [Example 14]
Marked response: 8.09

Exam item: Short answer please: pIC50, MKN1, entry N#Cc1c(N)sc2c(F)ccc(-c3c4c(c5cnc(OCC6(CN7CCC(=CF)CC7)CC6)nc5c3Cl)COC4)c12 [Example 39]
Marked response: 8.40

Exam item: Request - read-out pIC50 | tested on MKN1 | compound N#Cc1c(N)sc2c(F)ccc(-c3c4c(c5cnc(OCC67CCCN6CC(=CF)C7)nc5c3F)COC4)c12 (stereo not shown) [Example 15]
Marked response: 8.16

====

# TEST: in vivo
# CONDITION LABEL: both, SD, rat, plasma, po, 20 mg/kg
ENDPOINT: half-life (h)
# unit: h | format: bare number

Exam item: Which half-life is listed for C[C@@H](O)CN1CC2CCC(C1)N2c1nc(OCC2(CN3CCC(=C(F)F)CC3)CC2)nc2c(F)c(-c3ncc(F)c4sc(N)c(C#N)c34)c3c(c12)COC3 [Example 2] ?
Marked response: 5.52

====

# Tested on: SW620
# TEST: 3D cell proliferation inhibition assay (CellTiter-Glo 3D)
# Format: cell-based
# CONDITION LABEL: Homo sapiens, SW-620, 120 h; SW620 cells, KRAS G12V, 3D culture, 5 days with compound
# From the text: This experiment uses the cells listed in the table below to evaluate the inhibitory effects of the compounds on the proliferation of KRAS mutant or KRAS amplified cells. On the first day of the experiment, cells that were growing well and had reached 70%-80% confluence were digested, resuspended in culture medium, and the cell density was adjusted to the desired level. […] The luminescence signal value was read using a multimode microplate reader (PerkinElmer, EnVision2105). […]
Field: label. Allowed values: t (IC50 < 10 nM) or f (IC50 >= 10 nM).

Exam item: Lab note: confirm whether the reported IC50 for this compound is below 10 nM, equality not counting. compound: N#Cc1c(N)sc2c(F)ccc(-c3c4c(c5cnc(OCC67CCCN6CC(=C(F)F)C7)nc5c3F)COC4)c12 (single isomer, unassigned) [Example 44A]
Marked response: t

Exam item: Identify whether the compound N#Cc1c(N)sc2c(F)ccc(-c3c4c(c5cnc(OCC6(CN7CCC(=CF)CC7)CC6)nc5c3Cl)COC4)c12 [Example 39] records IC50 below 10 nM.
Marked response: f

Exam item: Please indicate whether the reported IC50 of N#Cc1c(N)sc2c(F)ccc(-c3c4c(c5cnc(OCC67CCCN6CC(=CF)C7)nc5c3F)COC4)c12 (centres unmarked) [Example 15] is strictly below 10 nM.
Marked response: t

Exam item: Input N#Cc1c(N)sc2c(F)ccc(-c3c4c(c5cnc(OCC67CCCN6CC(=C(F)F)C7)nc5c3F)COC4)c12 (centres unmarked) [Example 27] ; condition: IC50 strictly below 10 nM. Does it hold?
Marked response: f
